Target: cIAP1-BIR2 (Homo sapiens (Human))
Sequence (Q13490 173-257): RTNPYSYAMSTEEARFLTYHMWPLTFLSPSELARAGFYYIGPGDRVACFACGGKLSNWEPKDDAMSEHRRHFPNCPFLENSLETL
Experiment: BIR binding assay (FRET competition), cIAP1 BIR2
result_type: IC50

>>> value("C[C@@H]1CN(CC(=O)N2CC(C)(C)c3ncc(Cc4ccc(C(F)(F)F)cc4)cc32)[C@@H](CN2CCO[C@H](COc3cccc(OC[C@@H]4CN(C[C@H]5CN[C@H](C)CN5CC(=O)N5CC(C)(C)c6ncc(Cc7ccc(C(F)(F)F)cc7)cc65)CCO4)c3)C2)CN1")
"10 to 51.3 µM"
>>> value("C[C@@H]1CN(CC(=O)N2CC(C)(C)c3[nH]c(=O)c(Cc4ccc(F)cc4)cc32)[C@@H](CN2CCC[C@H](NC(=O)Cc3cccc(CC(=O)N[C@H]4CCCN(C[C@H]5CN[C@H](C)CN5CC(=O)N5CC(C)(C)c6[nH]c(=O)c(Cc7ccc(F)cc7)cc65)C4)c3)C2)CN1")
"3.16 to 10 µM"

Taken from patent US20250326771A1.
